target: SHP2-C SH2; assay: SH2 binding enrichment of the phosphorylated peptide, bacterial display (enrichment ratio); higher = better substrate or ligand; peptides without Tyr show the background;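 note: peptide library displayed on the E. coli surface as eCPX fusions, selected cells deep-sequenced, score is each peptide's frequency after selection divided by its frequency in the input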
MEASUREMENT NAME: SH2 binding enrichment
Numbers only.

Batch: SH2 binding enrichment for all items listed.
1. FTNRSYDLDFD [MYC_Y12_N11S_YF]
2. RQQEVYLLYKQ [RARRES1_Y159_D158V]
3. RLSPEYKQNEI [GJB1_Y243]
4. IALSKYGRVKR [FGF6_Y186]
5. TQKLAYVELQQ [CENPF_Y700_M701V]

1: 0.723; 2: 0.765; 3: 0.933; 4: 0.447; 5: 1.75

* * *

system: Fer (mouse); assay: phosphorylation enrichment, bacterial display (enrichment ratio); higher = better substrate or ligand; peptides without Tyr show the background
MEASUREMENT NAME: phosphorylation enrichment
Give bare numbers.

Returns the measured phosphorylation enrichment for the input sequence. Input: QEALEYFMKQV [PIK3CA_Y1038_M1043V] 0.402

Field request: phosphorylation enrichment | item: RPCVVYGGADI [DDX3X_Y301] 0.653

Consider the sequence shown here: RAEAPYLLVSN [LRIG1_Y1054_Q1053P] What is its recorded phosphorylation enrichment? 0.699

// next item, phosphorylation enrichment requested
# lookup: phosphorylation enrichment of LLKKVYLMLDN [STAT1_Y203_M202V] 0.801

* * *

system: c-Abl (mouse); test: phosphorylation enrichment, bacterial display (enrichment ratio); higher = better substrate or ligand; peptides without Tyr show the background
MEASUREMENT NAME: phosphorylation enrichment
Numbers only.

Field: example entries. Status: answers known.
Which phosphorylation enrichment is reported for this sequence? AGHEEYSAMRD [KRAS_Y64_Q61H] 0.616

What does the record list as phosphorylation enrichment for LAIERYVVVSK [RHO_Y136_C140S] ? 0.935

State the recorded phosphorylation enrichment for this entry: FISVGYVDDTL [HLA-B_Y51_Q56L] 0.772

Which phosphorylation enrichment is reported for this sequence? LLANAYIFVVQ [L1CAM_Y418_YF] 1.44

What does the data say about its phosphorylation enrichment? Entry: LQEQNYPAVDS [FAM114A1_Y115_L116P] 1.13

Record phosphorylation enrichment for all entries; do not skip any.
1. SSAETYSRMRL [NBEAL2_Y1835]
2. FARNCYVAGQF [G6PD_Y107_S106C_YF]
3. GEHSIYCTVNN [CD55_Y266]
4. KLKPIYFHTQG [AR_Y916_V912L]

[0.509, 0.714, 1.98, 0.568]

Quick request: phosphorylation enrichment for each listed item, please.
1. SLVVPYEPPEV [TP53_Y220_V216L]
2. WDLPEYSFKDP [ITGA3_Y237_S235P_YF]

[1.26, 0.871]

List reported phosphorylation enrichment for each of these sequences:
1. ELTAKYLNYYR [P3H4_Y181_Q186R]
2. KKHIPHREHKS [CSNK1G2_Y206_Y206H]
3. RGKEPYTKKAL [TTC21B_Y160]
4. IRFPPYTDWNQ [ALDH3B2_Y365_H361R_YF]
5. ATHRGYDLDNP [MMUT_Y146_S148L]

[0.498, 4.03, 0.933, 0.45, 0.614]

* * *

target: Fyn (UniProt P06241); test: phosphorylation enrichment, bacterial display (enrichment ratio); higher = better substrate or ligand; peptides without Tyr show the background
Sequence (P06241 whole entry, looked up): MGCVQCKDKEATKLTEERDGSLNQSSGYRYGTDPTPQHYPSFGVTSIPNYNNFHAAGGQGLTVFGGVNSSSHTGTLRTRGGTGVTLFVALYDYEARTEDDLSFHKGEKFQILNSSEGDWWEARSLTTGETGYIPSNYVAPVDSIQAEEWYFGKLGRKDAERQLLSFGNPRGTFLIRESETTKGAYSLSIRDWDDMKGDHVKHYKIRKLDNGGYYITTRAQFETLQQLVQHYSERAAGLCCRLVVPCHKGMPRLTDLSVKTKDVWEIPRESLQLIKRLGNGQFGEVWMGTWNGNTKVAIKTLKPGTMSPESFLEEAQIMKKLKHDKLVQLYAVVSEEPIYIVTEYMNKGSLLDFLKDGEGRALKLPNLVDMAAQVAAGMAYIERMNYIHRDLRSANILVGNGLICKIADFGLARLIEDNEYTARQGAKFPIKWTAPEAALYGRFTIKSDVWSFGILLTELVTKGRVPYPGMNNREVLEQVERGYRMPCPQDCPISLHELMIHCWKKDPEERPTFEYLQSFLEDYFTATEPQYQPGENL
For each record, write down the corresponding phosphorylation enrichment.
Numbers only.

These solved cases illustrate the format of a correct answer.
I am curious: what phosphorylation enrichment value has been reported for LARNMYDKEFF [MET_Y1230_D1228N_YF] ? 0.529

Reported phosphorylation enrichment, sequence FSPPFYHRNCM [HGD_Y334_R330S_YF] : ____ 0.377

Parameters: items (list). Returns: phosphorylation enrichment for each item.
1. HGVSSYDTVIS [LDLR_Y465]
2. KELSSYKHLTL [SLIT2_Y776_N775S]
3. KPGLKYVTFGN [GALNTL5_Y404_YF]
4. TLERHYKELQA [SPTBN2_Y834_E835K]
5. NTFEKYLGEEF [TF_Y669_YF]

[0.818, 0.427, 0.409, 0.446, 0.454]
